molecular target: human CB1 receptors (Homo sapiens); construct: (cDNA clone) CNR01L000; test: cAMP assay in HEK-293 cells, hCB1 agonist; format: cell-based; conditions: inhibition of forskolin-stimulated cAMP, HEK-293 cells; read-out: hCB1 EC50 (cAMP ag)
Sequence (P21554 whole entry): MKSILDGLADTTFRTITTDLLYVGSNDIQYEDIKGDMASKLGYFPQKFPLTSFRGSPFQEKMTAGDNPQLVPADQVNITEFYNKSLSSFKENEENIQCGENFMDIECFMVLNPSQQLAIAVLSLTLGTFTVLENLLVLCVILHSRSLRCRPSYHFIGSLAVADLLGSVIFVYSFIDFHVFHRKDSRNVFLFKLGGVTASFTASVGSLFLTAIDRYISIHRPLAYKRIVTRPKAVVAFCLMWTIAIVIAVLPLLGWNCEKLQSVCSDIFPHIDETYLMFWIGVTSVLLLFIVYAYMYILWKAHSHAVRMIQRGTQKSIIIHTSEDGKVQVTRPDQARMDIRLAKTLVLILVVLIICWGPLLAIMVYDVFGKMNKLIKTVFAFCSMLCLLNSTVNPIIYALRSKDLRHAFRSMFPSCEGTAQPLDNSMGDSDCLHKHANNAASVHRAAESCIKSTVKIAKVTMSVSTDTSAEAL
Give EC50 for every item shown.

The reported EC50 of the compound COCCn1c(C)cc2cc(C(=O)c3cccc(Cl)c3Cl)sc21 [Compound 21] was 1 to 10 µM

EC50 for Cc1cc2cc(C(=O)c3ccccc3Cl)sc2n1CCN1CCOCC1 [Compound 5] is 0.1 to 1 µM

EC50 in this record for COc1ccc(C(=O)c2cc3cc(C)n(CCCCl)c3s2)c(Cl)c1 [Compound 85] : 1 to 10 µM

Entry COc1ccc(C(=O)c2cc3cc(C)n(CCN4CCOCC4)c3s2)c(Cl)c1 [Compound 70] , EC50 reported as 0.1 to 1 µM

// EC50 lookup, compound = COc1cc(F)ccc1C(=O)c1cc2cc(C)n(CCN3CCOCC3)c2s1 [Compound 133] , result: 0.1 to 1 µM

For record COc1ccc(C(=O)c2cc3cc(C)n(CCN4CCCCC4)c3s2)cc1 [Compound 78] the listed EC50 is 1 to 10 µM

For reference, reported EC50 for COc1ccccc1C(=O)c1cc2cc(C)n(CCN3CCOCC3)c2s1 [Compound 13] stands at 0.1 to 1 µM

The reported EC50 of the compound COc1ccc(C(=O)c2cc3cc(C)n(S(=O)(=O)N4CCOCC4)c3s2)cc1 [Compound 53] was < 0.1 µM

Sample COc1cccc(C(=O)c2cc3cc(C)n(CCN4CCOCC4)c3s2)c1 [Compound 26] ; EC50 observed: 0.1 to 1 µM
